Target: T1, human OX40 protein (Acro biosystem, #OX0-H5224) (human, UniProt P43489 29-216)
T1 construct: Bought recombinant protein
T1 sequence (looked up): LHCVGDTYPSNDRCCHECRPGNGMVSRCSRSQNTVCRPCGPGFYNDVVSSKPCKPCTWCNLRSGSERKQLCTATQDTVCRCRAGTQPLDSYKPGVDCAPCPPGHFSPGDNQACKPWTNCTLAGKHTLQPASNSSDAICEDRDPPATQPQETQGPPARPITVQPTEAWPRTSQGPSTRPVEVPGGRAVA
Assay: BLI, antibody on ProA sensor, 1:1 global fit
recorded_metric: kon (M⁻¹ s⁻¹)
Answer in M⁻¹ s⁻¹, number only, no unit symbol.

PR002063 (antibody, human IgG1, V domains shown, no light chain; also called anti-OX40 HCAb antibody) VH: EVQLLESGGGLVQPGGSLRLSCAASGFTFSSYAMSWVRQAPGRGLEWVSAISGGGGSTFYADSVRGRFTISRDNSKNTLYLQMSSLRAEDTAVYYCANGMTGTTDVDYWGQGTRVTVSS; 39200

## Input Reported kon for PR002066 (antibody, human IgG1, V domains shown, no light chain; also called anti-OX40 HCAb antibody) VH: EVQLLESGGGLVQPGGSLRLSCIASGFTFSSYAMSWVRQAPGKGLEWVSAISGRGGSTFYADSVRGRFTISRDNSKNTLYLQMNSLRAEDTAVYYCANGMTGTTDVDYWGQGTQVTVSS : what is it?
## Output 44400

## Input Given PR002067 (antibody, human IgG1, V domains shown, no light chain; also called anti-OX40 HCAb antibody) VH: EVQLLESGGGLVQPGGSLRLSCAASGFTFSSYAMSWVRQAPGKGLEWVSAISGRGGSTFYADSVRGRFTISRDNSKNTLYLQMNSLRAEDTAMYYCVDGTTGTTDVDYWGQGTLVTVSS , state its recorded kon.
## Output 37400

## Input Which value of kon has been reported for PR002065 (antibody, human IgG1, V domains shown, no light chain; also called anti-OX40 HCAb antibody) VH: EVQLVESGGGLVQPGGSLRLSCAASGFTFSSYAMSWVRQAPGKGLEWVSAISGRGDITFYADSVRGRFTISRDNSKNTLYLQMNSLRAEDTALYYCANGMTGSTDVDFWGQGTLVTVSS in the records?
## Output 49600

## Input Look up kon: PR002077 (antibody, human IgG1, V domains shown, no light chain; also called anti-OX40 HCAb antibody) VH: EVQLLESGGGLVQPGGSLRLSCAASGFTFSSYAMSWVRQAPGKGLEWVSAISGRGNITFYADSVRGRFTISRDNSKNTLYLQMNSLRAEDTAVYYCANGITGTTDVDYWGQGTLVTVSS
## Output 34300
